B1: glmS ribozyme (parent)
chain: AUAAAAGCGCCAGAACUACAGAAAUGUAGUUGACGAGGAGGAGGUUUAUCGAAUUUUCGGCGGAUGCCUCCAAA

Variants of: B1
assay.details: self-cleavage kobs at 40 uM GlcN6P; higher = faster cleavage; RNA array
study.conditions: with glucosamine-6-phosphate
Fewer inactive variants are shown than the library holds.
Answer each item with its documented self-cleavage kobs at 40 uM GlcN6P.

See these solved cases before continuing.
If you can, please state the reported self-cleavage kobs at 40 uM GlcN6P value of C10U A14G A52U G60U .
< 1e-05 s⁻¹

If you can, please state the reported self-cleavage kobs at 40 uM GlcN6P value of G7U C10G C68G .
0.000171 s⁻¹

If you can, please state the reported self-cleavage kobs at 40 uM GlcN6P value of U31C G59U .
< 1e-05 s⁻¹

If you can, please state the reported self-cleavage kobs at 40 uM GlcN6P value of U30G A39C .
3.28e-05 s⁻¹

If you can, please state the reported self-cleavage kobs at 40 uM GlcN6P value of C8G C61G .
< 1e-05 s⁻¹

Fill in self-cleavage kobs at 40 uM GlcN6P for each of the 4 variants listed.
1. U30A C50G
2. G9A C61A
3. A14G G59A U65G G66A
4. G43U G44A A48G C58A U69A C71G

1: 3.17e-05 s⁻¹; 2: < 1e-05 s⁻¹; 3: < 1e-05 s⁻¹; 4: < 1e-05 s⁻¹
